Target: human CD33 W22S (human, UniProt P20138 18-364)
Sequence (P20138 18-364 W22S limits assumed): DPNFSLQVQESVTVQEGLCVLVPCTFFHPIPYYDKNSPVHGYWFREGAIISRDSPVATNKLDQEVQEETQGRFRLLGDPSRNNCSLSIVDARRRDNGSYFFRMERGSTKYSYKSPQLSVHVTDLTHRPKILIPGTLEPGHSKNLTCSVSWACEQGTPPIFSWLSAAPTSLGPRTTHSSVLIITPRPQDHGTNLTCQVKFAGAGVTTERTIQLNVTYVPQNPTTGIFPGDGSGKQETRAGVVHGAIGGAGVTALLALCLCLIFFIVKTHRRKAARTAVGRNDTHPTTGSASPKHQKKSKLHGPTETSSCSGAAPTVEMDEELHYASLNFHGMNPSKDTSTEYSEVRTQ
Assay: flow cytometry, mutant on cells, IgG
quantityKind: Mean % WT Binding

• Refmab #2 (antibody, human IgG1, V domains shown, Tested in IgG format; human IgG1 Fc silent (PG-LALA)) VH: QVQLVQSGAEVKKPGSSVKVSCKASGGTFSDYAISWVRQAPGQGLEWMGRIIPILGVADYAQKFQGRVTITADKSTRTAYMELSSLRSEDTAVYYCARNWADAFDIWGQGTMVTVSS VL: DIQLTQSPSSLSASVGDRVTITCRASQGISSVLAWYQQKPGKAPKLLIYDASSLESGVPSRFSGSGSGTDFTLTISSLQPEDFATYYCQQFDSSITFGQGTKLEIK = 105 % WT binding
• Refmab #3 (antibody, human IgG1, V domains shown, Tested in IgG format; human IgG1 Fc silent (PG-LALA)) VH: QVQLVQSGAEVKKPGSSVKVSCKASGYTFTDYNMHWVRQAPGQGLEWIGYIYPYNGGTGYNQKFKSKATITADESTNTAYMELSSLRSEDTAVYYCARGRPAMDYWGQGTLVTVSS VL: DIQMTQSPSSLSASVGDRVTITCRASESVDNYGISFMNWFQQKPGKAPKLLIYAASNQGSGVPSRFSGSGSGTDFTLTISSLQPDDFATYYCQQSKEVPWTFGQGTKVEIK = 1.4 % WT binding
• Refmab #4 (antibody, human IgG1, V domains shown, Tested in IgG format; human IgG1 Fc silent (PG-LALA)) VH: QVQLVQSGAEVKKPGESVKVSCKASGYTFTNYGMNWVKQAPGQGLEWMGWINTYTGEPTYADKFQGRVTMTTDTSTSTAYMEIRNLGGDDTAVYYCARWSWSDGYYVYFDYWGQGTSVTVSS VL: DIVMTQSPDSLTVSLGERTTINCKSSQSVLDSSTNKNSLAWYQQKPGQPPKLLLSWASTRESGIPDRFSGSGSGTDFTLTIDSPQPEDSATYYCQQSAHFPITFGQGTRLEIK = 103 % WT binding
• Refmab #1 (antibody, human IgG1, V domains shown, Tested in IgG format; human IgG1 (Absolute Antibody hP67.6, Cat. No. Ab00283-10.0); also called hP67.6) VH: EVQLVQSGAEVKKPGSSVKVSCKASGYTITDSNIHWVRQAPGQSLEWIGYIYPYNGGTDYNQKFKNRATLTVDNPTNTAYMELSSLRSEDTAFYYCVNGNPWLAYWGQGTLVTVSS VL: DIQLTQSPSTLSASVGDRVTITCRASESLDNYGIRFLTWFQQKPGKAPKLLMYAASNQGSGVPSRFSGSGSGTEFTLTISSLQPDDFATYYCQQTKEVPWSFGQGTKVEVK = 74.3 % WT binding
